experimental_system: recombinant human HPK1 (Homo sapiens (Human))
method: HPK1 kinase assay (Promega ADP-Glo kinase assay)
condition_set: In vitro activity against HPK1, 5 ng HPK1, MBP substrate, ATP 25 μM, 30° C. 40 minutes
pIC50: −log10 of the molar value. Where a name gives a salt, the structure may show the parent alone.
Item-by-item account of pIC50

molecule: O=C(Nc1cn2cc(-c3c(C(F)F)c(F)c(C(C4CC4)N4C(=O)c5ccccc5C4=O)c4[nH]ncc34)ncc2n1)[C@@H]1C[C@@H]1F (stereo partly drawn)
pIC50: > 7.00

Find pIC50 (recombinant human HPK1 (Homo sapiens (Human))) for the entry `CC(C)Nc1c(F)c(Cl)c(-c2cn3cc(NC(=O)[C@@H]4C[C@@H]4C(N)=O)nc3cn2)c2cn[nH]c12`
> 7.00

Subsequent entry: CC(CO)c1c(F)c(C(F)(F)F)c(-c2cn3cc(NC(=O)[C@@H]4C[C@@H]4F)nc3cn2)c2cn[nH]c12 (stereo partly drawn)
> 7.00

Subsequent entry: O=C(Nc1cn2cc(-c3c(Cl)c(F)c(OC4CNC4)c4[nH]ncc34)ncc2n1)[C@@H]1C[C@@H]1F [Example 143, formate]
6.00 to 6.30

Subsequent entry: Cc1c(F)c(C(NC(=O)C2CC2)C2CC2)c2[nH]ncc2c1-c1cn2cc(NC(=O)[C@@H]3C[C@@H]3F)nc2cn1 (stereo partly drawn)
> 7.00

Subsequent entry: `Cc1c(F)c(C2=CC(=O)CC2)c2[nH]ncc2c1-c1cn2cc(NC(=O)[C@@H]3C[C@@H]3F)nc2cn1`
6.30 to 7.00

* * *

experimental_system: recombinant human HPK1 (Homo sapiens (Human), UniProt Q92918)
Sequence (Q92918 whole entry): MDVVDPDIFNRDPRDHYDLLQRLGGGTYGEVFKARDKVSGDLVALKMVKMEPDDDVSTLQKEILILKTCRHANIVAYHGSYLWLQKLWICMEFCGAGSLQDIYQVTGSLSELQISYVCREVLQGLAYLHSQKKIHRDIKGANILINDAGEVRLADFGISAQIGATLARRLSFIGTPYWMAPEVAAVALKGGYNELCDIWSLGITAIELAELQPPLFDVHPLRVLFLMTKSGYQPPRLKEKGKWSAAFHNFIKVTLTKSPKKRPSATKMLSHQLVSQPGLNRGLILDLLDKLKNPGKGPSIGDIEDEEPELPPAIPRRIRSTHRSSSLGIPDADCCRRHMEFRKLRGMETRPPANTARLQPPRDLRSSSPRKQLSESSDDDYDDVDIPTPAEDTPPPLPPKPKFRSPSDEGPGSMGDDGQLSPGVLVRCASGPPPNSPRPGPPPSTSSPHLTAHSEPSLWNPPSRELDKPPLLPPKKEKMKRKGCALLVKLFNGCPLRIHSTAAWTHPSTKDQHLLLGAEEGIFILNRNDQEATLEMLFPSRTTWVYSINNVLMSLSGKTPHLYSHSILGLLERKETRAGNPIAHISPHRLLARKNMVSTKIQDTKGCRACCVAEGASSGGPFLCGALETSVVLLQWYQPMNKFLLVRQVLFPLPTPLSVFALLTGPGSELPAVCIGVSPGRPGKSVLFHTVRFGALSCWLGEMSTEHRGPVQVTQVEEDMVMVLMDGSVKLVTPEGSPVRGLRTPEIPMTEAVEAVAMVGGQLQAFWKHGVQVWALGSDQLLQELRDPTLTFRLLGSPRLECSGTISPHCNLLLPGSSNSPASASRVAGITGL
method: HPK1 kinase assay (Promega ADP-Glo kinase assay)
condition_set: In vitro activity against HPK1, 5 ng HPK1, MBP substrate, ATP 25 μM, 30° C. 40 minutes
Item-by-item account of IC50

compound: CC(C)Nc1c(F)c(Cl)c(-c2cn3cc(NC(=O)c4ccccc4)nc3cn2)c2cn[nH]c12
measurement_kind: IC50
result_value: < 100 nM

Look at this compound and give its reported IC50. `CCC(=O)N1CC(Oc2c(F)c(Cl)c(-c3cn4cc(NC(C)=O)nc4cn3)c3cn[nH]c23)C1`
501 to 1000 nM

Subsequent entry: `CC(=O)Nc1cn2cc(-c3c(Cl)c(F)c(CN4CC(C)(O)C4)c4[nH]ncc34)ncc2n1`
501 to 1000 nM

Subsequent entry: NC(c1c(F)c(C(F)F)c(-c2cn3cc(NC(=O)[C@@H]4C[C@@H]4F)nc3cn2)c2cn[nH]c12)C1CC1 (stereo partly shown)
< 100 nM

Subsequent entry: COc1c(F)c(C(O)C2CC2)c2[nH]ncc2c1-c1cn2cc(NC(=O)[C@@H]3C[C@@H]3F)nc2cn1 (stereo partly shown)
< 100 nM

Subsequent entry: Cc1c(F)c(C2CCOC2)c2[nH]ncc2c1-c1cn2cc(NC(=O)[C@@H]3C[C@@H]3F)nc2cn1 (stereo partly shown)
< 100 nM

* * *

experimental_system: recombinant human HPK1 (Homo sapiens (Human), UniProt Q92918)
method: HPK1 kinase assay (Promega ADP-Glo kinase assay)
condition_set: In vitro activity against HPK1, 5 ng HPK1, MBP substrate, ATP 25 μM, 30° C. 40 minutes
measurement_kind: IC50

For orientation, consider the following solved cases.
compound: CN(C)c1c(F)c(C(F)(F)F)c(-c2cn3cc(NC(=O)[C@H]4C[C@@H]4F)nc3cn2)c2cn[nH]c12 [Example 31]
result_value: < 100 nM
--
compound: CC(C)Nc1c(F)c(Cl)c(-c2cn3cc(NC4CCOC4)nc3cn2)c2cn[nH]c12 (stereo not drawn) [Example 101]
result_value: 101 to 500 nM
--
compound: Cc1c(F)c(C2=CCCC2)c2[nH]ncc2c1-c1cn2cc(NC(=O)[C@@H]3C[C@@H]3F)nc2cn1 [Example 11]
result_value: < 100 nM
--
compound: CC(=O)Nc1cn2cc(-c3c(C(F)F)c(F)c(NC(C)C)c4[nH]ncc34)ncc2n1 [Example 153]
result_value: < 100 nM
--
compound: CC(=O)N(C)c1cn2cc(-c3c(Cl)c(F)c(NC(C)C)c4[nH]ncc34)ncc2n1 [Example 102]
result_value: 501 to 1000 nM
--
compound: CN(C)c1c(F)c(C(F)F)c(-c2cn3cc(NC(=O)[C@@H]4C[C@@H]4F)nc3cn2)c2cn[nH]c12 [Example 17]
result_value: < 100 nM
--
compound: Cc1c(F)c(C(C)C(F)F)c2[nH]ncc2c1-c1cn2cc(NC(=O)[C@@H]3C[C@@H]3F)nc2cn1 (stereo partly drawn) [Example 5]
result_value: < 100 nM
--
compound: CC(C)Nc1c(F)c(Cl)c(-c2cn3cc(NC(=O)[C@@H]4C[C@@H]4C(=O)O)nc3cn2)c2cn[nH]c12 [Example 20]
result_value: < 100 nM
--
compound: CC(=O)Nc1cn2cc(-c3c(Cl)c(F)c(OC4CN(C(C)=O)C4)c4[nH]ncc34)ncc2n1 [Example 145]
result_value: 501 to 1000 nM
--
compound: CNC(=O)Nc1cn2cc(-c3c(Cl)c(F)c(NC(C)C)c4[nH]ncc34)ncc2n1 [Example 121]
result_value: 501 to 1000 nM

Next compound, please.
Look at this compound and give its reported IC50. CC(c1c(F)c(C(F)F)c(-c2cn3cc(NC(=O)[C@@H]4C[C@@H]4F)nc3cn2)c2cn[nH]c12)N1C(=O)c2ccccc2C1=O (stereo partly drawn) [Example 50]
< 100 nM

* * *

experimental_system: recombinant human HPK1 (Homo sapiens (Human), UniProt Q92918)
method: HPK1 kinase assay (Promega ADP-Glo kinase assay)
condition_set: In vitro activity against HPK1, 5 ng HPK1, MBP substrate, ATP 25 μM, 30° C. 40 minutes
pIC50: −log10 of the molar value.
Item-by-item account of pIC50

For orientation, consider the following solved cases.
compound: Cc1c(F)c(NC(C)C)c2[nH]ncc2c1-c1cn2cc(NC(=O)[C@H]3C[C@H]3F)nc2cn1
experimental_system: recombinant human HPK1 (Homo sapiens (Human), UniProt Q92918)
pIC50: > 7.00

compound: CC(=O)N1CC(Oc2c(F)c(Cl)c(-c3cn4cc(NC(=O)[C@@H]5C[C@@H]5F)nc4cn3)c3cn[nH]c23)C1
experimental_system: recombinant human HPK1 (Homo sapiens (Human), UniProt Q92918)
pIC50: 6.30 to 7.00

compound: CC(C)Nc1c(F)c(Cl)c(-c2cn3cc(NC(=O)CN(C)C)nc3cn2)c2cn[nH]c12
experimental_system: recombinant human HPK1 (Homo sapiens (Human), UniProt Q92918)
pIC50: > 7.00

compound: CC(C)Nc1c(F)c(Cl)c(-c2cn3cc(NC(=O)C(F)(F)F)nc3cn2)c2cn[nH]c12
experimental_system: recombinant human HPK1 (Homo sapiens (Human), UniProt Q92918)
pIC50: > 7.00

compound: COC(=O)NC1(C(=O)Nc2cn3cc(-c4c(Cl)c(F)c(NC(C)C)c5[nH]ncc45)ncc3n2)CC1
experimental_system: recombinant human HPK1 (Homo sapiens (Human), UniProt Q92918)
pIC50: 6.00 to 6.30

Look at this compound and give its reported pIC50. `CC(C)Nc1c(F)c(Cl)c(-c2cn3cc(N4CCOCC4)nc3cn2)c2cn[nH]c12`
6.00 to 6.30

Subsequent entry: O=C(Nc1cn2cc(-c3c(C(F)F)c(F)c(C(O)C4CC4)c4[nH]ncc34)ncc2n1)[C@@H]1C[C@@H]1F (stereo partly shown)
> 7.00

* * *

experimental_system: recombinant human HPK1 (Homo sapiens (Human))
method: HPK1 kinase assay (Promega ADP-Glo kinase assay)
condition_set: In vitro activity against HPK1, 5 ng HPK1, MBP substrate, ATP 25 μM, 30° C. 40 minutes
Counter-ions that a name gives are not always drawn.
Item-by-item account of IC50

Look at this molecule and give its reported IC50. `CC(C)Nc1c(F)c(Cl)c(-c2cn3cc(NC(=O)Cc4cocn4)nc3cn2)c2cn[nH]c12`
< 100 nM

Subsequent entry: CC(N)c1c(F)c(C(F)F)c(-c2cn3cc(NC(=O)[C@@H]4C[C@@H]4F)nc3cn2)c2cn[nH]c12 (some centres unmarked)
101 to 500 nM

Subsequent entry: CC(=O)NC(c1c(F)c(C(F)(F)F)c(-c2cn3cc(NC(=O)[C@@H]4C[C@@H]4F)nc3cn2)c2cn[nH]c12)C1CC1 (some centres unmarked) [Example 56, formate]
< 100 nM

Subsequent entry: `CC(C)Nc1c(F)c(Cl)c(-c2cn3cc(NC(=O)C(C)(C)C)nc3cn2)c2cn[nH]c12`
101 to 500 nM

Subsequent entry: Cc1c(F)c(C(C)N)c2[nH]ncc2c1-c1cn2cc(NC(=O)[C@@H]3C[C@@H]3F)nc2cn1 (some centres unmarked)
101 to 500 nM

Subsequent entry: O=C(Nc1cn2cc(-c3c(C(F)(F)F)c(F)c(C(O)C4CC4)c4[nH]ncc34)ncc2n1)[C@@H]1C[C@@H]1CO (some centres unmarked)
< 100 nM

Subsequent entry: `CC(C)Nc1c(F)c(Cl)c(-c2cn3cc(NC(=O)C4COC4)nc3cn2)c2cn[nH]c12`
< 100 nM

Subsequent entry: `CC(C)Nc1c(F)c(Cl)c(-c2cn3cc(NC(=O)CO)nc3cn2)c2cn[nH]c12`
< 100 nM

Subsequent entry: `CC(C)Nc1c(F)c(CO)c(-c2cn3cc(NC(=O)[C@@H]4C[C@@H]4F)nc3cn2)c2cn[nH]c12`
101 to 500 nM

Subsequent entry: `COc1c(F)c(NC(C)C)c2[nH]ncc2c1-c1cn2cc(NC(C)=O)nc2cn1`
< 100 nM

Subsequent entry: `CCC(=O)Nc1cn2cc(-c3c(C(F)F)c(F)c(NC(C)C)c4[nH]ncc34)ncc2n1`
< 100 nM
